B1: CPEB3 Ribozyme (parent)
chain: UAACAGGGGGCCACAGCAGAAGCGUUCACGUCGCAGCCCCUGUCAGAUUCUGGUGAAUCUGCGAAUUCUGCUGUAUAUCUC

Variants of: B1
ASSAY_DETAILS: self-cleavage, relative activity (ratio to wild type); higher = more cleavage; in vitro, sequencing
Use fulfilled when the recorded self-cleavage is no lower than 0.3; use not fulfilled when it is lower.

1) C37U U43C :: fulfilled
2) G19C U41A :: fulfilled
3) C11U C14A :: fulfilled
4) A45C U72C :: fulfilled
5) A13C U25A :: fulfilled

Record A5G G70A ; criterion: self-cleavage no lower than 0.3. Met?
fulfilled

Record G7U A75G ; criterion: self-cleavage no lower than 0.3. Met?
not fulfilled

Record C29A U66C ; criterion: self-cleavage no lower than 0.3. Met?
not fulfilled

Record A21U U49C ; criterion: self-cleavage no lower than 0.3. Met?
not fulfilled

Record A28G C37A ; criterion: self-cleavage no lower than 0.3. Met?
not fulfilled

Record A57C U78A ; criterion: self-cleavage no lower than 0.3. Met?
fulfilled

Record C14A A35G ; criterion: self-cleavage no lower than 0.3. Met?
fulfilled

Record C71A ; criterion: self-cleavage no lower than 0.3. Met?
fulfilled

Record C17A U80C ; criterion: self-cleavage no lower than 0.3. Met?
not fulfilled

Record G6C U25A ; criterion: self-cleavage no lower than 0.3. Met?
fulfilled

Record A2U U48C ; criterion: self-cleavage no lower than 0.3. Met?
fulfilled

Record A3G G63A ; criterion: self-cleavage no lower than 0.3. Met?
fulfilled

Record A5G G73C ; criterion: self-cleavage no lower than 0.3. Met?
fulfilled

Record G55A U58C ; criterion: self-cleavage no lower than 0.3. Met?
not fulfilled

Record G6C U54C ; criterion: self-cleavage no lower than 0.3. Met?
fulfilled

Record A5U G8A ; criterion: self-cleavage no lower than 0.3. Met?
not fulfilled

Record G9A A65G ; criterion: self-cleavage no lower than 0.3. Met?
not fulfilled

Record A20U G22A ; criterion: self-cleavage no lower than 0.3. Met?
not fulfilled

Record A15U U58A ; criterion: self-cleavage no lower than 0.3. Met?
not fulfilled

Record U31C U74A ; criterion: self-cleavage no lower than 0.3. Met?
fulfilled

Record G9U U41A ; criterion: self-cleavage no lower than 0.3. Met?
not fulfilled

Record G52U U67G ; criterion: self-cleavage no lower than 0.3. Met?
fulfilled

Data provenance is the RNAGym collection of RNA variant scans (doi:10.1093/nar/gkz1192).
